Measured Binding affinity by item
system: acetylcholine receptor (Homo sapiens, UniProt P02708)
Sequence (P02708 21-457): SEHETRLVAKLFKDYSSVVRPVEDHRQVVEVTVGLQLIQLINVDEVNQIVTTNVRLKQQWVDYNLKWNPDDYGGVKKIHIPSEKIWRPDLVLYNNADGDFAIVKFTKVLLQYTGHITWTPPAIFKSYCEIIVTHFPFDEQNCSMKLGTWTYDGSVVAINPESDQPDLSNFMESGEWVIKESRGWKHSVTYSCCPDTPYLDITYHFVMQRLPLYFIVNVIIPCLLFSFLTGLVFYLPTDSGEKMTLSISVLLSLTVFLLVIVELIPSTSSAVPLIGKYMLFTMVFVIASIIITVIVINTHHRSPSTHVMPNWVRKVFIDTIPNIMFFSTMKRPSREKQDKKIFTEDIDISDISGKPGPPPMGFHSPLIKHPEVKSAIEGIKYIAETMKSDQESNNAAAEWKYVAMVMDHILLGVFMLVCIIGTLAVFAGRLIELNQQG
method.description: SPR binding affinity (RU) of optimized 5mer/6mer/7mer peptides, Examples 6-7
test.conditions: SPR, Resonance Units; peptides tested at 10 μM; 6mer-2 Top sequence (Table 12)
Please respond with the number in Ru and leave the unit unwritten.

6mer-2-287 (RLYLKR); 124

Form field Binding affinity, entry 6mer-2-260 (RRFCKR) : 142

For reference, reported Binding affinity for 6mer-2-367 (RWRSRR) stands at 142

---

Attribute: Binding affinity
system: acetylcholine receptor (Homo sapiens, UniProt P02708)
method.description: SPR binding affinity (RU) of optimized 5mer/6mer/7mer peptides, Examples 6-7
test.conditions: SPR, peptides tested at 10 μM; 6mer-1 Top sequence (top combinations)
Value expressed in Ru; do not type the unit.

A selection of reference data follows.
6mer-1-56 (RRGIQR); 137
6mer-1-179 (KRSQYR); 148
6mer-1-33 (KKSYCR); 154

Per the records, this substance ( 6mer-1-119 (KRLQTR) ) has Binding affinity equal to 133

get_value(item= 6mer-1-26 (KKRVLR) , readout=Binding affinity) returns 123

// field: Binding affinity; key: 6mer-1-141 (RKLYQK) ; value = 141

Lookup result for 6mer-1-9 (RKSFCK) ; measured Binding affinity: 154

Value of Binding affinity reported for the substance 6mer-1-62 (RRWFTK) is 133

Just for reference, patent US20250011363A1 is where these values come from.
